- System: SF-539
- assay.protocol: NCI tumour cell line growth inhibition, 48 h
The source made the active and inactive calls. Rule as the data show it: active = GI50 up to about 1.1 µM and inactive = higher.
Please reply with one of these outcomes: true = active, false = inactive

compound | qualitative.label
CCCCOC(=O)C(=O)C(CC(CC)C(=O)c1ccccc1)C(=O)C=C(C)C (centres undefined) | false
O=c1n(-c2ccccc2)c(=O)n2n1C1C=CC2CCCCCC1 | false
Cc1ccc(S(=O)(=O)NC(=O)NCCc2c[nH]cn2)cc1 | false

Hi team, can someone confirm the assay call for Cc1cc(Cl)ccc1NC(=O)C(=O)Cc1nc2ccc(C(=O)c3ccccc3)cc2nc1O ?
false

For CN(C)CCC(/C=C/c1ccccc1)=N\Nc1c(F)c(F)c(F)c(F)c1F , what call appears in the results of this test?
false

Can you look up the reported call for O=[N+]([O-])c1cccc(-c2oc(/C=N/c3ccccc3)c([N+](=O)[O-])c2-c2cccc([N+](=O)[O-])c2)c1 for me?
false

Could you kindly confirm the outcome this assay logged for CC(=O)Nc1cc(/C=C\C(=O)N2CC(CCl)c3c2cc(N)c2ccccc32)n(C)n1 (centres undefined) ?
true

Can you look up the reported call for CCOC(=O)C1C(c2ccc(OC)cc2)c2c(n[nH]c2O)CC1(C)O (centres undefined) for me?
false

What did the test return for CN1C(c2ccccc2)CC(C)(O)CC1c1ccccc1 (centres undefined) ?
false

Query: recorded result category for CCOc1ccccc1NC(=O)CCC(=O)NN in this test
false

Tell me the assay call for O=S(=O)(N/C(=N\O)Nc1ccc(Cl)cc1)c1cc(S(=O)(=O)c2ccccc2)cs1 please.
false

Tell me the recorded outcome of this test for COc1ccc(C2Oc3cc(OC)c(O)cc3[C@@H]2C)cc1 (some centres undefined) .
false

State the result this test recorded for CCOC(=O)c1ccc(C(=O)/C(C#N)=C2\CCCN2)[nH]1 .
false

Name the outcome recorded for CCOC(OC1=C(C#N)CCCC1)C(CC)[Se]c1ccccc1[N+](=O)[O-] (centres undefined) in the assay.
false

Please share the test call associated with C=C(Cl)COC(=O)Nc1cccc(Cl)c1 .
false

What call does the record list for NC(Cc1cccnn1)C(=O)O (centres undefined) ?
false

Which outcome did this test record for the compound COc1cc(/C=C2/SC(c3ccccc3)N(c3cccc(Cl)c3)C2=O)cc(OC)c1OC (centres undefined) ?
false

Please let me know the test result on file for CCOC(=O)CC(=O)ON(C)C(=O)Cc1ccccc1 .
false

Check the results log: what was the call for O=C(c1ccccc1)[C@H]1Nc2cnccc2C2c3ccccc3CC21 (some centres undefined) ?
false
